Target: T1, 285bZIP E306A (human, UniProt P16220-1 285-339, C300S;C310S;C337S;E306A)
T1 sequence: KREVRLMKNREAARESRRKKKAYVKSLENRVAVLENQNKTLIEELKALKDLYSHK
Experiment: stopped-flow fluorescence (koff/kon); 10 mM Mg2+; 10 mM MES pH 6.5, 150 mM NaCl, 10 mM MgCl2, 0.05% Tween-20, 25 C; NMR: 10 mM Tris-d11, 150 mM NaCl, 10 mM MgCl2, 1 mM NaN3, 5% D2O (NOE at 25 C)
Settings: protein: recombinant; tags: extra N-terminal Gly; chain copies: 2; label: 5' Alexa Fluor 488; hairpin (self-annealing, 11 bp stem, CCCC loop)
Measurement Type: Kd

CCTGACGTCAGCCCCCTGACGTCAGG (structured_DNA) [AlexaFluor488-CREh]	139 pM
